Tested system: Adenosine receptor A1 (Homo sapiens)
Sequence (P30542 whole entry): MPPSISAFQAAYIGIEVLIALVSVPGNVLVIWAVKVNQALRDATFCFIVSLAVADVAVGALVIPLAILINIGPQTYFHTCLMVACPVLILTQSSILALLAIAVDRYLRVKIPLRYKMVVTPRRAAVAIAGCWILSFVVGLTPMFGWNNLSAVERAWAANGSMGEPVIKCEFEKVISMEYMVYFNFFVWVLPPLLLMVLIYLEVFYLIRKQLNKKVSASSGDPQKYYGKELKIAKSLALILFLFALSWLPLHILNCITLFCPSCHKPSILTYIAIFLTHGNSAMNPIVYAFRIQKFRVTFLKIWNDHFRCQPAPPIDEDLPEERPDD
Assay overview: Displacement of [3H]DPCPX from recombinant human A1 receptor expressed in CHO cell membranes
Measure name: pKi
Scale note: pKi = -log10(concentration in M).

The examples below pair each entry with its known result.
[[record]]
compound_structure_string = "OC[C@H]1O[C@@H](n2cnc3c(NCCc4ccccc4)ncnc32)[C@H](O)[C@@H]1O"
tested_system = "Adenosine receptor A1 (Homo sapiens)"
numeric_readout = 7.89

[[record]]
compound_structure_string = "OC[C@H]1O[C@@H](n2cnc3c(N[C@H]4CCC[C@@H]4O)ncnc32)[C@H](O)[C@@H]1O"
tested_system = "Adenosine receptor A1 (Homo sapiens)"
numeric_readout = 8.41

[[record]]
compound_structure_string = "Clc1cccc(CNc2nc(C#Cc3ccc(Cl)s3)nc3[nH]cnc23)c1"
tested_system = "Adenosine receptor A1 (Homo sapiens)"
numeric_readout = 5.57

[[record]]
compound_structure_string = "Clc1ccc(C#Cc2nc(NC(C3CC3)C3CC3)c3nc[nH]c3n2)s1"
tested_system = "Adenosine receptor A1 (Homo sapiens)"
numeric_readout = 5.92

[[record]]
compound_structure_string = "O[C@H]1CCC[C@@H]1Nc1nc(C#Cc2ccc(Cl)s2)nc2[nH]cnc12"
tested_system = "Adenosine receptor A1 (Homo sapiens)"
numeric_readout = 5.83


Tell me measured pKi for `Cn1cnc2c(NCCc3ccccc3)nc(C#Cc3ccc(Cl)s3)nc21` please.
5.31

Please indicate pKi recorded for `Clc1ccc(C#Cc2nc(NCCc3ccccc3)c3nc[nH]c3n2)s1`
5.76
